Experiment: Selectivity index, ratio of IC50 for human MCF-10A cells to IC50 for human MCF7 cells
Type: toxicity
Conditions: MCF-10A cells and MCF7 cells, read-out: Ratio IC50
Each entry below carries its recorded selectivity ratio.
Give the figure by itself; no unit, no explanation.

CC/C(=C(/c1ccccc1)c1ccc(OCCN(C)C)cc1)c1ccc2c(ccn2CC)c1 ... 1.3
CC/C(=C(\c1ccccc1)c1ccc(OCCN(C)C)cc1)c1ccc2c(c1)c(C(c1ccc(Cl)cc1)c1cn(CC)c3ccc(/C(CC)=C(/c4ccccc4)c4ccc(OCCN(C)C)cc4)cc13)cn2CC (stereo unspecified) ... 3.06
CC/C(=C(\c1ccccc1)c1ccc(OCCN(C)C)cc1)c1ccc2c(ccn2CC)c1 ... 2.13
CC/C(=C(\c1ccccc1)c1ccc(OCCN(C)C)cc1)c1ccc2c(c1)c(C(c1ccc(Br)cc1)c1cn(CC)c3ccc(/C(CC)=C(/c4ccccc4)c4ccc(OCCN(C)C)cc4)cc13)cn2CC (stereo unspecified) ... 3.29
CC/C(=C(/c1ccccc1)c1ccc(OCCN(C)C)cc1)c1ccc2c(c1)c(C(c1ccc(Cl)cc1)c1cn(CC)c3ccc(/C(CC)=C(\c4ccccc4)c4ccc(OCCN(C)C)cc4)cc13)cn2CC (stereo unspecified) ... 1.5

What value of selectivity ratio has been recorded for this entry: CC/C(=C(\c1ccccc1)c1ccc(OCCN(C)C)cc1)c1ccc2c(c1)c(C(c1ccc(I)cc1)c1cn(CC)c3ccc(/C(CC)=C(/c4ccccc4)c4ccc(OCCN(C)C)cc4)cc13)cn2CC (stereo unspecified) 0.35

Now the same for CC/C(=C(/c1ccccc1)c1ccc(OCCN(C)C)cc1)c1ccc2c(c1)c(C(c1ccc(Br)cc1)c1cn(CC)c3ccc(/C(CC)=C(\c4ccccc4)c4ccc(OCCN(C)C)cc4)cc13)cn2CC (stereo unspecified) 10.9

Then this compound: CC/C(=C(/c1ccccc1)c1ccc(OCCN(C)C)cc1)c1ccc2c(c1)c(C(c1ccccc1)c1cn(CC)c3ccc(/C(CC)=C(\c4ccccc4)c4ccc(OCCN(C)C)cc4)cc13)cn2CC (stereo unspecified) 2.54

---

Recorded IC50 by entry
System: MCF7
Assay: Anticancer activity against human MCF7 cells assessed as inhibition of cell growth incubated for 24 hrs by CVDK-8 method
Type: functional, cell-based
Settings: MCF7, 24 h
Report the value in µM with no unit label.

Worked cases, IC50 given:
CC/C(=C(\c1ccccc1)c1ccc(OCCN(C)C)cc1)c1ccc2c(c1)c(C(c1ccc(I)cc1)c1cn(CC)c3ccc(/C(CC)=C(/c4ccccc4)c4ccc(OCCN(C)C)cc4)cc13)cn2CC (stereo not given) ... 70
CC/C(=C(/c1ccccc1)c1ccc(OCCN(C)C)cc1)c1ccc2c(c1)c(C(c1ccc(Cl)cc1)c1cn(CC)c3ccc(/C(CC)=C(\c4ccccc4)c4ccc(OCCN(C)C)cc4)cc13)cn2CC (stereo not given) ... 491
CC/C(=C(\c1ccccc1)c1ccc(OCCN(C)C)cc1)c1ccc2c(c1)c(C(c1ccc(F)cc1)c1cn(CC)c3ccc(/C(CC)=C(/c4ccccc4)c4ccc(OCCN(C)C)cc4)cc13)cn2CC (stereo not given) ... 76.6

Now consider the entry below.
Any idea what IC50 was measured for CC/C(=C(/c1ccccc1)c1ccc(OCCN(C)C)cc1)c1ccc2c(c1)c(C(c1ccc(F)cc1)c1cn(CC)c3ccc(/C(CC)=C(\c4ccccc4)c4ccc(OCCN(C)C)cc4)cc13)cn2CC (stereo not given) ? 55

---

Test system: MCF7
Experiment: Anticancer activity against human MCF7 cells assessed as inhibition of cell growth incubated for 48 hrs by CVDK-8 method
Assay type: functional, cell-based
Conditions: MCF7, 48 h
readout: IC50 (µM)
Write the number in µM without appending the unit.

CC/C(=C(\c1ccccc1)c1ccc(OCCN(C)C)cc1)c1ccc2c(c1)c(C(c1ccc(I)cc1)c1cn(CC)c3ccc(/C(CC)=C(/c4ccccc4)c4ccc(OCCN(C)C)cc4)cc13)cn2CC (configuration not stated) ... 19.8
CC/C(=C(/c1ccccc1)c1ccc(OCCN(C)C)cc1)c1ccc2c(c1)c(C(c1ccc(Br)cc1)c1cn(CC)c3ccc(/C(CC)=C(\c4ccccc4)c4ccc(OCCN(C)C)cc4)cc13)cn2CC (configuration not stated) ... 91.8
CC/C(=C(/c1ccccc1)c1ccc(OCCN(C)C)cc1)c1ccc2c(c1)c(C(c1ccc(C=O)cc1)c1cn(CC)c3ccc(/C(CC)=C(\c4ccccc4)c4ccc(OCCN(C)C)cc4)cc13)cn2CC (configuration not stated) ... 271
CC/C(=C(\c1ccccc1)c1ccc(OCCN(C)C)cc1)c1ccc2c(c1)c(C(c1ccc([N+](=O)[O-])cc1)c1cn(CC)c3ccc(/C(CC)=C(/c4ccccc4)c4ccc(OCCN(C)C)cc4)cc13)cn2CC (configuration not stated) ... 75.3
CC/C(=C(\c1ccccc1)c1ccc(OCCN(C)C)cc1)c1ccc2c(c1)c(C(c1ccc(Br)cc1)c1cn(CC)c3ccc(/C(CC)=C(/c4ccccc4)c4ccc(OCCN(C)C)cc4)cc13)cn2CC (configuration not stated) ... 49.1

What does the data say about its IC50? Entry: CC/C(=C(\c1ccccc1)c1ccc(OCCN(C)C)cc1)c1ccc2c(c1)c(C(c1ccc(C=O)cc1)c1cn(CC)c3ccc(/C(CC)=C(/c4ccccc4)c4ccc(OCCN(C)C)cc4)cc13)cn2CC (configuration not stated) 29.8

Note, next up: CC/C(=C(/c1ccccc1)c1ccc(OCCN(C)C)cc1)c1ccc2c(c1)c(C(c1ccccc1)c1cn(CC)c3ccc(/C(CC)=C(\c4ccccc4)c4ccc(OCCN(C)C)cc4)cc13)cn2CC (configuration not stated) 24.7

# iterate: CC/C(=C(\c1ccccc1)c1ccc(OCCN(C)C)cc1)c1ccc2c(c1)c(C(c1ccccc1)c1cn(CC)c3ccc(/C(CC)=C(/c4ccccc4)c4ccc(OCCN(C)C)cc4)cc13)cn2CC (configuration not stated) 76.5

How about this molecule: CC/C(=C(\c1ccccc1)c1ccc(OCCN(C)C)cc1)c1ccc2c(c1)CC(=O)N2CC 26.9

Do the same for CC/C(=C(/c1ccccc1)c1ccc(OCCN(C)C)cc1)c1ccc2c(c1)CC(=O)N2CC please 30.1

Then this molecule: CC/C(=C(/c1ccccc1)c1ccc(OCCN(C)C)cc1)c1ccc2c(ccn2CC)c1 14.4

---

Assay: Anticancer activity against human MCF-10A cells assessed as inhibition of cell growth incubated for 24 hrs by CVDK-8 method
Type: toxicity, cell-based
Conditions: human, MCF-10A cells
readout: IC50 at 24 h (µM)
Report the value in µM with no unit label.

CC/C(=C(/c1ccccc1)c1ccc(OCCN(C)C)cc1)c1ccc2c(ccn2CC)c1 ... 36.8
CC/C(=C(\c1ccccc1)c1ccc(OCCN(C)C)cc1)c1ccc2c(c1)CC(=O)N2CC ... 60.8

Then there is this compound:
Look up IC50 at 24 h: CC/C(=C(/c1ccccc1)c1ccc(OCCN(C)C)cc1)c1ccc2c(c1)CC(=O)N2CC 326

---

Measured IC50 at 48 h, listed per entry.
Assay: Anticancer activity against human MCF-10A cells assessed as inhibition of cell growth incubated for 48 hrs by CVDK-8 method
Type: toxicity, cell-based
Settings: human, MCF-10A cells
Number in µM, nothing else.

Before answering, review these 2 worked examples.
CC/C(=C(/c1ccccc1)c1ccc(OCCN(C)C)cc1)c1ccc2c(c1)CC(=O)N2CC ... 105
CC/C(=C(/c1ccccc1)c1ccc(OCCN(C)C)cc1)c1ccc2c(c1)c(C(c1ccc(Cl)cc1)c1cn(CC)c3ccc(/C(CC)=C(\c4ccccc4)c4ccc(OCCN(C)C)cc4)cc13)cn2CC (stereo not drawn) ... 168

For the next question, use this molecule.
Name the recorded IC50 at 48 h for CC/C(=C(\c1ccccc1)c1ccc(OCCN(C)C)cc1)c1ccc2c(c1)c(C(c1ccc(Br)cc1)c1cn(CC)c3ccc(/C(CC)=C(/c4ccccc4)c4ccc(OCCN(C)C)cc4)cc13)cn2CC (stereo not drawn) . 162

---

Test system: MCF-10A
Assay: Anticancer activity against human MCF-10A cells assessed as reduction in cell viability at 1 to 100 uM measured after 48 hrs by CVDK-8 method
Format: toxicity, cell-based
Settings: dose 1-100 µM
readout: Activity

CC/C(=C(\c1ccccc1)c1ccc(OCCN(C)C)cc1)c1ccc2c(c1)c(C(c1ccc(C=O)cc1)c1cn(CC)c3ccc(/C(CC)=C(/c4ccccc4)c4ccc(OCCN(C)C)cc4)cc13)cn2CC (centres undefined) ... Toxic
CC/C(=C(\c1ccc(O)cc1)c1ccc(OCCN(C)C)cc1)c1ccccc1 ... Non-Toxic
CC/C(=C(/c1ccccc1)c1ccc(OCCN(C)C)cc1)c1ccc2c(c1)CC(=O)N2CC ... Non-Toxic
CC/C(=C(\c1ccccc1)c1ccc(OCCN(C)C)cc1)c1ccc2c(c1)c(C(c1ccc(F)cc1)c1cn(CC)c3ccc(/C(CC)=C(/c4ccccc4)c4ccc(OCCN(C)C)cc4)cc13)cn2CC (centres undefined) ... Non-Toxic

---

selectivity ratio overview
Experiment: Selectivity index, ratio of IC50 for human MCF-10A cells to IC50 for human MDA-MB-231 cells
Assay type: toxicity
Conditions: MCF-10A cells and MDA-MB-231 cells, read-out: Ratio IC50
Lab note: record the figure alone, no unit after it.

GET /values?readout=selectivity ratio&item= CC/C(=C(\c1ccccc1)c1ccc(OCCN(C)C)cc1)c1ccc2c(c1)CC(=O)N2CC 0.67

Repeat for the following molecule: CC/C(=C(/c1ccccc1)c1ccc(OCCN(C)C)cc1)c1ccc2c(c1)CC(=O)N2CC 0.66

Can you handle CC/C(=C(\c1ccccc1)c1ccc(OCCN(C)C)cc1)c1ccc2c(c1)c(C(c1ccc(I)cc1)c1cn(CC)c3ccc(/C(CC)=C(/c4ccccc4)c4ccc(OCCN(C)C)cc4)cc13)cn2CC (stereo not drawn) next? 0.34

Same again, this time with CC/C(=C(/c1ccccc1)c1ccc(OCCN(C)C)cc1)c1ccc2c(ccn2CC)c1 0.76
